Origin of the recorded values: ChEMBL document CHEMBL3612048

experiment: Cytotoxicity against human Hep3B cells assessed as induction of cell death incubated for 2 days by MTT assay; type: functional, cell-based, Hep 3B2; conditions: 48 h
IC50 listing for selected compounds.
Endpoint: IC50 (µM)

C[C@H]1O[C@@H](O[C@H]2CC[C@]3(C)[C@H]4C=C[C@]56OC[C@@]7(CCC(C)(C)C[C@H]75)[C@@H](O)C[C@@]6(C)[C@]4(C)CC[C@H]3C2(C)C)[C@H](O)[C@@H](O[C@@H]2O[C@H](CO)[C@@H](O)[C@H](O)[C@H]2O)[C@H]1O ... 16.7
CC(=O)O[C@@H]1[C@@H](O)[C@H](O[C@H]2[C@@H](O)[C@@H](C)O[C@@H](O[C@H]3CC[C@@]4(C)[C@@H](CC[C@]5(C)[C@@H]4C=C[C@]46OC[C@@]7(CCC(C)(C)C[C@H]74)[C@@H](O)C[C@]65C)[C@]3(C)CO)[C@@H]2O)O[C@H](CO)[C@H]1O ... 13.7

* * *

test system: Bcap37; assay: Cytotoxicity against human Bcap37 cells assessed as induction of cell death incubated for 2 days by MTT assay; type: functional, cell-based; details: Bcap37, 48 h
IC50 listing for selected molecules.
Endpoint: IC50 (µM)

C[C@H]1O[C@@H](O[C@H]2CC[C@]3(C)[C@H]4C=C[C@]56OC[C@@]7(CCC(C)(C)C[C@H]75)[C@@H](O)C[C@@]6(C)[C@]4(C)CC[C@H]3C2(C)C)[C@H](O)[C@@H](O[C@@H]2O[C@H](CO)[C@@H](O)[C@H](O)[C@H]2O)[C@H]1O ... 15.4
CC(=O)O[C@@H]1[C@@H](O)[C@H](O[C@H]2[C@@H](O)[C@@H](C)O[C@@H](O[C@H]3CC[C@@]4(C)[C@@H](CC[C@]5(C)[C@@H]4C=C[C@]46OC[C@@]7(CCC(C)(C)C[C@H]74)[C@@H](O)C[C@]65C)[C@]3(C)CO)[C@@H]2O)O[C@H](CO)[C@H]1O ... 26.6

* * *

test system: MCF7; assay: Cytotoxicity against human MCF7 cells assessed as induction of cell death incubated for 2 days by MTT assay; type: functional, cell-based; settings: MCF7, 48 h
pIC50: −log10 of the molar value.
Endpoint: pIC50

C[C@H]1O[C@@H](O[C@H]2CC[C@]3(C)[C@H]4C=C[C@]56OC[C@@]7(CCC(C)(C)C[C@H]75)[C@@H](O)C[C@@]6(C)[C@]4(C)CC[C@H]3C2(C)C)[C@H](O)[C@@H](O[C@@H]2O[C@H](CO)[C@@H](O)[C@H](O)[C@H]2O)[C@H]1O ... 4.67

* * *

tested on: Bcap37; test: Cytotoxicity against human Bcap37 cells assessed as induction of cell death incubated for 2 days by MTT assay; assay type: functional, cell-based; settings: Bcap37, 48 h
pIC50: −log10 of the molar value.
pIC50 listing for selected compounds.
Endpoint: pIC50

CC(=O)OC[C@H]1O[C@@H](O[C@H]2[C@@H](O)[C@@H](C)O[C@@H](O[C@H]3CC[C@@]4(C)[C@@H](CC[C@]5(C)[C@@H]4C=C[C@]46OC[C@@]7(CCC(C)(C)C[C@H]74)[C@@H](O)C[C@]65C)[C@]3(C)CO)[C@@H]2O)[C@H](O)[C@@H](O)[C@@H]1O ... 4.47
C[C@H]1O[C@@H](O[C@H]2CC[C@@]3(C)[C@@H](CC[C@]4(C)[C@@H]3C=CC3=C5CC(C)(C)CC[C@]5(CO)[C@@H](O)C[C@]34C)[C@]2(C)CO)[C@H](O)[C@@H](O)[C@H]1O ... 4.36
CC(=O)O[C@H]1[C@H](O[C@H]2[C@@H](O)[C@@H](C)O[C@@H](O[C@H]3CC[C@@]4(C)[C@@H](CC[C@]5(C)[C@@H]4C=C[C@]46OC[C@@]7(CCC(C)(C)C[C@H]74)[C@@H](O)C[C@]65C)[C@]3(C)CO)[C@@H]2O)O[C@H](CO)[C@@H](O)[C@@H]1O ... 4.75
CC(=O)OC[C@@]1(C)[C@@H]2CC[C@]3(C)[C@H](C=C[C@]45OC[C@@]6(CCC(C)(C)C[C@H]64)[C@@H](O)C[C@]53C)[C@@]2(C)CC[C@@H]1O[C@@H]1O[C@H](C)[C@H](O)[C@H](O)[C@H]1O ... 4.59
C[C@H]1O[C@@H](O[C@H]2CC[C@@]3(C)[C@@H](CC[C@]4(C)[C@@H]3C=CC3=C5CC(C)(C)CC[C@]5(CO)[C@H](O)C[C@]34C)[C@]2(C)CO)[C@H](O)[C@@H](O)[C@H]1O ... 4.42
C[C@H]1O[C@@H](O[C@H]2CC[C@@]3(C)[C@@H](CC[C@]4(C)[C@@H]3C=C[C@]35OC[C@@]6(CCC(C)(C)C[C@H]63)C(=O)C[C@]54C)[C@]2(C)CO)[C@H](O)[C@@H](O[C@@H]2O[C@H](CO)[C@@H](O)[C@H](O)[C@H]2O)[C@H]1O ... 4.70
C[C@H]1O[C@@H](O[C@H]2CC[C@@]3(C)[C@@H](CC[C@]4(C)[C@@H]3C=C[C@]35OC[C@@]6(CCC(C)(C)C[C@H]63)[C@H](O)C[C@]54C)[C@]2(C)CO)[C@H](O)[C@@H](O[C@@H]2O[C@H](CO)[C@@H](O)[C@H](O)[C@H]2O)[C@H]1O ... 4.97
C[C@H]1O[C@@H](O[C@H]2CC[C@@]3(C)[C@@H](CC[C@]4(C)[C@@H]3C=C[C@]35OC[C@@]6(CCC(C)(C)C[C@H]63)[C@@H](O)C[C@]54C)[C@]2(C)CO)[C@H](O)[C@@H](O[C@@H]2O[C@H](CO)[C@@H](O)[C@H](O)[C@H]2O)[C@H]1O ... 4.86
C[C@H]1O[C@@H](O[C@H]2CC[C@@]3(C)[C@@H](CC[C@]4(C)[C@@H]3C=C[C@]35OC[C@@]6(CCC(C)(C)C[C@H]63)[C@@H](O)C[C@]54C)[C@]2(C)CO)[C@H](O)[C@@H](O)[C@H]1O ... 4.76
